B1: MTMR15 (parent)
chain: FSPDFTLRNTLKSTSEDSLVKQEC

variants of: B1; assay: protein stability index of a GFP-peptide fusion (GPS, HEK-293T) (PSI 1-6); higher = more stable; conditions: c terminus: a fixed tail appended;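 further: lentivirally expressed fusions sorted by FACS into six bins by GFP to DsRed ratio, PSI derived from sequencing read proportions per bin multiplied by bin number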
quantityName: protein stability index
Answer with the value's number alone.

Recorded results for 10 variants are shown here.
{"polymerSequence": "FFPDFTLRNTLKSTSEDSLVKQEC", "quantityName": "protein stability index", "dataValue": 4.04}
{"polymerSequence": "FSPDFTLRNTLKSSSEDSLVKQEC", "quantityName": "protein stability index", "dataValue": 2.1}
{"polymerSequence": "FSPDFTLRNTLKSTPEDSLVKQEC", "quantityName": "protein stability index", "dataValue": 1.83}
{"polymerSequence": "FSPDFTWRNTLKSTSEDSLVKQEC", "quantityName": "protein stability index", "dataValue": 2.16}
{"polymerSequence": "FSPDFTLRNTLKSTSEDWLVKQEC", "quantityName": "protein stability index", "dataValue": 1.75}
{"polymerSequence": "FSPDFTLRNTLNSTSEDSLVKQEC", "quantityName": "protein stability index", "dataValue": 1.41}
{"polymerSequence": "FSPDFTLRNTLKSTSEDSLYKQEC", "quantityName": "protein stability index", "dataValue": 2}
{"polymerSequence": "FSPDFTLRNTLKSTSEDSHVKQEC", "quantityName": "protein stability index", "dataValue": 2.32}
{"polymerSequence": "FSPDFVLRNTLKSTSEDSLVKQEC", "quantityName": "protein stability index", "dataValue": 1.82}
{"polymerSequence": "FSPDFTARNTLKSTSEDSLVKQEC", "quantityName": "protein stability index", "dataValue": 1.99}

Data point: "FSFDFTLRNTLKSTSEDSLVKQEC" ; protein stability index = 2.83

Data point: "FSPDFTLRNTLKSTSEDSLVKYEC" ; protein stability index = 2.39
